- measured target: T1, EsCas13d, nuclease-dead (Eubacterium siraeum, UniProt B0MS50, R295A;H300A;R849A;H854A)
- T1 sequence: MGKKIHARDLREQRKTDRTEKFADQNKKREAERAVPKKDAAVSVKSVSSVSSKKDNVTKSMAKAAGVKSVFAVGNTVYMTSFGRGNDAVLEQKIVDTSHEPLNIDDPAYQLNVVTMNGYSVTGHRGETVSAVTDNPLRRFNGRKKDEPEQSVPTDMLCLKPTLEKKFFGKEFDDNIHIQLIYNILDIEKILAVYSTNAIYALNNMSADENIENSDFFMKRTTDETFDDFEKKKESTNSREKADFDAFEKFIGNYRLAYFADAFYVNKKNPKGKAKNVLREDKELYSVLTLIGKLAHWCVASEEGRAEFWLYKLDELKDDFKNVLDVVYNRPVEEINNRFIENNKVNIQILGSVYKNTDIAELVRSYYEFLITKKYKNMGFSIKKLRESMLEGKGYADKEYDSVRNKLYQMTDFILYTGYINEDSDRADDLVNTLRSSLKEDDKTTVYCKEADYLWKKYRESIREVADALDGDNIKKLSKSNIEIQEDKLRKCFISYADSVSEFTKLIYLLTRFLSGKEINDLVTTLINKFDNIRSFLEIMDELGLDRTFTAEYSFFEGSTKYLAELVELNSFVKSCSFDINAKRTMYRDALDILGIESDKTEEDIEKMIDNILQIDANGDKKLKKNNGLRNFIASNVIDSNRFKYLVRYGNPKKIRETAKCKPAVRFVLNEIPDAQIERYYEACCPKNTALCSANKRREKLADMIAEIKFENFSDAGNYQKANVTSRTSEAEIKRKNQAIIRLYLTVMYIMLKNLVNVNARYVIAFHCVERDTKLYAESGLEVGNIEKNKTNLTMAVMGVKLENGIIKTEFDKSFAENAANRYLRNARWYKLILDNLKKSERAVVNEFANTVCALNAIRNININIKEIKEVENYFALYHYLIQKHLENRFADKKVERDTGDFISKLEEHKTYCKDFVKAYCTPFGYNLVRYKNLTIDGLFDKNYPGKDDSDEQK
- assay protocol: crRNA (strand 1, pre-loaded); Mg2+; 40 mM Tris-HCl pH 7.5, 150 mM NaCl, 6 mM MgCl2, 1 mM DTT, 0.1% Tween-20, 0.2 mg/ml BSA; 25 C; 10 min per concentration, then washed
- condition parameters: tags: His6-TwinStrep-SUMO cleaved; N-terminal SNAP kept (SNAP-Surface 488); label: 3' end held by stalled T7 RNA polymerase
Below: a set of entries, each annotated with reported pKd.
Remember the convention: pKd equals -log10 of concentration in molar.

Please review the entries below; each comes with its answer.
• target 1 C4G,C22G (mixed) RNA 1: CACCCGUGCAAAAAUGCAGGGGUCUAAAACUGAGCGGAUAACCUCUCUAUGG RNA 2: GGGAAUGGAUCCACAUCUACGAAUUCGUAGCAUAGAGAGGUUAUCCGGUCACCGAGAUCGGAAGAGCACACGU = 7.79
• target 1 G5A,A16C (mixed) RNA 1: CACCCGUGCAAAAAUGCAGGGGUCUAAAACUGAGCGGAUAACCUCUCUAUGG RNA 2: GGGAAUGGAUCCACAUCUACGAAUUCGUACCAUAGCGAGGUUAUCCACUCACCGAGAUCGGAAGAGCACACGU = 7.24
• target 1 MT 5'PFS UCA 3'PFS AGU (mixed) RNA 1: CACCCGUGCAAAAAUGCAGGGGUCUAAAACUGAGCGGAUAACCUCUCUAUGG RNA 2: GGGAAUGGAUCCACAUCUACGAAUUCUCACCAUAGAGAGGUUAUCCGCUCAAGUAGAUCGGAAGAGCACACGU = 7.61
• target 1 MT 5'PFS GAA 3'PFS UCG (mixed) RNA 1: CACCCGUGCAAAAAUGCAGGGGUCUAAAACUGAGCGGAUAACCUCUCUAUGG RNA 2: GGGAAUGGAUCCACAUCUACGAAUUCGAACCAUAGAGAGGUUAUCCGCUCAUCGAGAUCGGAAGAGCACACGU = 7.40

Read the entry target 1 insG 3' of 6,insU 3' of 2 (mixed) RNA 1: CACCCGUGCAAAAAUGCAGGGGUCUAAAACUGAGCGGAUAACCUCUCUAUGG RNA 2: GGGAAUGGAUCCACAUCUACGAAUUCGUACCAUAGAGAGGUUAUCCGGCUCUACCGAGAUCGGAAGAGCACACGU and write its reported pKd.
7.79

Name the recorded pKd of the binder listed here: target 1 insU 3' of 21,insA 3' of 2 (mixed) RNA 1: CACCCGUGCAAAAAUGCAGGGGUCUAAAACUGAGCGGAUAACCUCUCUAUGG RNA 2: GGGAAUGGAUCCACAUCUACGAAUUCGUACCUAUAGAGAGGUUAUCCGCUCAACCGAGAUCGGAAGAGCACACGU
7.57

Write down pKd measured for item target 2 MT 5'PFS GGA 3'PFS CUA (mixed) RNA 1: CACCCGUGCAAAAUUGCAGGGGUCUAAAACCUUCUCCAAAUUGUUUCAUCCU RNA 2: GGGAAUGGAUCCACAUCUACGAAUUCGGAAGGAUGAAACAAUUUGGAGAAGCUAAGAUCGGAAGAGCACACGU
8.00

Return the recorded pKd value; entry: target 3 insA 3' of 10,insG 3' of 2 (mixed) RNA 1: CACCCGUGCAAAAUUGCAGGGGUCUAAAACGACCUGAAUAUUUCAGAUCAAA RNA 2: GGGAAUGGAUCCACAUCUACGAAUUCGUUUUUGAUCUGAAAUAAUUCAGGUGCUGCAGAUCGGAAGAGCACACGU
7.38

Report pKd for target 1 insC 3' of 13,insA 3' of 10 (mixed) RNA 1: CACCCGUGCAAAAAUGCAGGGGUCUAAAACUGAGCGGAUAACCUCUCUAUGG RNA 2: GGGAAUGGAUCCACAUCUACGAAUUCGUACCAUAGAGAGCGUUAAUCCGCUCACCGAGAUCGGAAGAGCACACGU
7.90

Tell me measured pKd for target 2 MT 5'PFS AAC 3'PFS UCU (mixed) RNA 1: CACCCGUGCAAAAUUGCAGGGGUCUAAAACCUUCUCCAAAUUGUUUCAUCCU RNA 2: GGGAAUGGAUCCACAUCUACGAAUUCAACAGGAUGAAACAAUUUGGAGAAGUCUAGAUCGGAAGAGCACACGU please.
7.85

Name the recorded pKd of the binder listed here: target 2 MT 5'PFS GAC 3'PFS UGC (mixed) RNA 1: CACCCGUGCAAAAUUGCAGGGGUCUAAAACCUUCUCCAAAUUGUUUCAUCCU RNA 2: GGGAAUGGAUCCACAUCUACGAAUUCGACAGGAUGAAACAAUUUGGAGAAGUGCAGAUCGGAAGAGCACACGU
7.84

Answer with reported pKd of target 2 MT 5'PFS GUU 3'PFS CGU (mixed) RNA 1: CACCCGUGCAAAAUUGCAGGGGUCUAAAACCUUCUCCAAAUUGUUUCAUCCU RNA 2: GGGAAUGGAUCCACAUCUACGAAUUCGUUAGGAUGAAACAAUUUGGAGAAGCGUAGAUCGGAAGAGCACACGU
7.89

Please list pKd recorded for the binder target 3 insG 3' of 2,insA 3' of 1 (mixed) RNA 1: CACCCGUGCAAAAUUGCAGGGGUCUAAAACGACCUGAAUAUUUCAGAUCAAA RNA 2: GGGAAUGGAUCCACAUCUACGAAUUCGUUUUUGAUCUGAAAUAUUCAGGUGCAUGCAGAUCGGAAGAGCACACGU
7.27

Entry target 3 insA 3' of 22,insG 3' of 2 (mixed) RNA 1: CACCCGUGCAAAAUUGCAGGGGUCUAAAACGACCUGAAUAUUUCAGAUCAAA RNA 2: GGGAAUGGAUCCACAUCUACGAAUUCGUUUAUUGAUCUGAAAUAUUCAGGUGCUGCAGAUCGGAAGAGCACACGU needs its pKd filled in; supply it.
7.48

Value source: paper PMC10786891
